Target: 5-hydroxytryptamine receptor 1A (Homo sapiens, UniProt P08908)
Sequence (P08908 whole entry): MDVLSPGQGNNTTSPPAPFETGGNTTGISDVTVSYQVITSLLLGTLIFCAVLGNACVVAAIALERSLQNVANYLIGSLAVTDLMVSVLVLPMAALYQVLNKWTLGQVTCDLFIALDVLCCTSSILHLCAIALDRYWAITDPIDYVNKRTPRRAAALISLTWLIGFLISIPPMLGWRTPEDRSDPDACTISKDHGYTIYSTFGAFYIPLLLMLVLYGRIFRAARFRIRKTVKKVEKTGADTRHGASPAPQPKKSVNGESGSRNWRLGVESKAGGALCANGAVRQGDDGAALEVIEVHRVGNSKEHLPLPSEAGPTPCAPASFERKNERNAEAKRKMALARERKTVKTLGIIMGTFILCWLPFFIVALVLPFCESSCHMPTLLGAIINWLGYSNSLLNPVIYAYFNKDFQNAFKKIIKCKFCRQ
Assay: In vitro inhibition of [3H]- 8-OH-DPAT binding to cloned cell line containing human 5-hydroxytryptamine 1A receptor
Property name: Ki

- COc1ccccc1N1CCN(CCN(C(=O)C2CCC(F)CC2)c2ccccn2)CC1 (stereo unspecified): 0.515 nM

###

Target: 5-hydroxytryptamine receptor 1A (Homo sapiens, UniProt P08908)
Test: In vitro inhibition of [3H]- 8-OH-DPAT binding to cloned cell line containing human 5-hydroxytryptamine 1A receptor (Experiment 2)
Property name: Ki

- COc1ccccc1N1CCN(CCN(C(=O)c2ccc(F)c(C)c2)c2ccccn2)CC1: 1.14 nM

###

We begin with a simple list: items and their reported pKi.
Target: UniProt P08908
Assay: In vitro inhibition of [3H]- 8-OH-DPAT binding to cloned cell line containing human 5-hydroxytryptamine 1A receptor by Panlabs assay
pKi: −log10 of the molar value.
Property name: pKi

- COc1ccccc1N1CCN(CCN(C(=O)C2CCC(F)CC2)c2ccccn2)CC1 (configuration not stated): 9.61
- COc1ccccc1N1CCN(CCN(C(=O)c2ccc(F)c(C)c2)c2ccccn2)CC1: 9.10
